# Test system: Candida albicans
# ASSAY_COMMENT: Lowest concentration required to inhibit 90-100% of the visible growth of Candida albicans when compared to controls
# Assay type: functional
READOUT_TYPE: MIC (µg/mL)
Dear colleague, please return just the value in µg/mL, with no unit written.

MOLECULE | UNIT_INFO | MIC
C/C=C1\NC(=O)[C@H]([C@@H](C)O)NC(=O)[C@@H](CCN)NC(=O)[C@@H](CCCCN)NC(=O)[C@@H](CC(=O)O)NC(=O)[C@@H](CCN)NC(=O)[C@@H](NC(=O)CC(O)CCc2cccc(OCCCCCCC)c2)COC(=O)[C@@H]([C@H](O)CCl)NC(=O)[C@H]([C@H](O)C(=O)O)NC1=O (stereo partly drawn) | µg/mL | 10

Would you kindly look at the next entry?
# return recorded MIC for entry C/C=C1\NC(=O)[C@H]([C@@H](C)O)NC(=O)[C@@H](CCN)NC(=O)[C@@H](CCCCN)NC(=O)[C@@H](CC(=O)O)NC(=O)[C@@H](CCN)NC(=O)[C@@H](NC(=O)CC(O)Cc2cccc(OCCCCCCCCCC)c2)COC(=O)[C@@H]([C@H](O)CCl)NC(=O)[C@H]([C@H](O)C(=O)O)NC1=O (stereo partly drawn)
15

---

Property: MIC; scope: individual molecules
# System: Candida albicans
# ASSAY_COMMENT: Lowest concentration required to inhibit 90-100% of the visible growth of Candida albicans when compared to controls
# Format: functional
Quick note: give the figure in µg/mL, leave out the unit.

Example entries begin here.
MOLECULE | MIC (µg/mL)
C/C=C1\NC(=O)[C@H]([C@H](C)O)NC(=O)[C@@H](CCN)NC(=O)[C@@H](CCCCN)NC(=O)[C@@H](CC(=O)O)NC(=O)[C@@H](CCN)NC(=O)[C@@H](NC(=O)C[C@@H](O)c2cccc(OCCCCCCCCCCC)c2)COC(=O)[C@@H]([C@H](O)CCl)NC(=O)[C@H]([C@H](O)C(=O)O)NC1=O | 10
C/C=C1\NC(=O)[C@H]([C@@H](C)O)NC(=O)[C@@H](CCN)NC(=O)[C@@H](CCCCN)NC(=O)[C@@H](CC(=O)O)NC(=O)[C@@H](CCN)NC(=O)[C@@H](NC(=O)CC(O)CCc2cccc(OCCCCCCCCC)c2)COC(=O)[C@@H]([C@H](O)CCl)NC(=O)[C@H]([C@H](O)C(=O)O)NC1=O (stereo partly specified) | 20
C/C=C1\NC(=O)[C@H]([C@@H](C)O)NC(=O)[C@@H](CCN)NC(=O)[C@@H](CCCCN)NC(=O)[C@@H](CC(=O)O)NC(=O)[C@@H](CCN)NC(=O)[C@@H](NC(=O)C[C@H](O)c2cccc(CCCCCCCC)c2)COC(=O)[C@@H]([C@H](O)CCl)NC(=O)[C@H]([C@H](O)C(=O)O)NC1=O | 5

Note: attention shifts to another entry.
Kindly indicate its recorded MIC. Item: C/C=C1\NC(=O)[C@H]([C@H](C)O)NC(=O)[C@@H](CCN)NC(=O)[C@@H](CCCCN)NC(=O)[C@@H](CC(=O)O)NC(=O)[C@@H](CCN)NC(=O)[C@@H](NC(=O)C[C@H](O)c2cccc(CCCCCCCCCCCC)c2)COC(=O)[C@@H]([C@H](O)CCl)NC(=O)[C@H]([C@H](O)C(=O)O)NC1=O
1.25

---

# Tested on: Aspergillus fumigatus
# ASSAY_COMMENT: Lowest concentration required to inhibit the growth of Aspergillus fumigatus
# Format: functional
MIC overview

STRUCTURE | READOUT_TYPE | MEASUREMENT
C/C=C1\NC(=O)[C@H]([C@H](C)O)NC(=O)[C@@H](CCN)NC(=O)[C@@H](CCCCN)NC(=O)[C@@H](CC(=O)O)NC(=O)[C@@H](CCN)NC(=O)[C@@H](NC(=O)C[C@@H](O)c2cccc(OCCCCCCCCCCC)c2)COC(=O)[C@@H]([C@H](O)CCl)NC(=O)[C@H]([C@H](O)C(=O)O)NC1=O | MIC | > 20 µg/mL
C/C=C1\NC(=O)[C@H]([C@H](C)O)NC(=O)[C@@H](CCN)NC(=O)[C@@H](CCCCN)NC(=O)[C@@H](CC(=O)O)NC(=O)[C@@H](CCN)NC(=O)[C@@H](NC(=O)C[C@@H](O)CCc2cccc(OCCCCC)c2)COC(=O)[C@@H]([C@H](O)CCl)NC(=O)[C@H]([C@H](O)C(=O)O)NC1=O | MIC | > 20 µg/mL

Okay, next one:
Using Aspergillus fumigatus as the test system, report measured MIC of C/C=C1\NC(=O)[C@H]([C@H](C)O)NC(=O)[C@@H](CCN)NC(=O)[C@@H](CCCCN)NC(=O)[C@@H](CC(=O)O)NC(=O)[C@@H](CCN)NC(=O)[C@@H](NC(=O)C[C@H](O)c2cccc(CCCCCCCCCCCC)c2)COC(=O)[C@@H]([C@H](O)CCl)NC(=O)[C@H]([C@H](O)C(=O)O)NC1=O .
2.5 µg/mL

---

Some compounds, each annotated with its measured MIC.
# Test system: Candida albicans
# ASSAY_COMMENT: Lowest concentration required to inhibit 90-100% of the visible growth of Candida albicans when compared to controls
# Format: functional

COMPOUND | MIC
C/C=C1\NC(=O)[C@H]([C@@H](C)O)NC(=O)[C@@H](CCN)NC(=O)[C@@H](CCCCN)NC(=O)[C@@H](CC(=O)O)NC(=O)[C@@H](CCN)NC(=O)[C@@H](NC(=O)CC(O)Cc2cccc(OCCCCCCCC)c2)COC(=O)[C@@H]([C@H](O)CCl)NC(=O)[C@H]([C@H](O)C(=O)O)NC1=O (some centres not stated) | > 20 mg/L

Identify measured MIC corresponding to C/C=C1\NC(=O)[C@H]([C@H](C)O)NC(=O)[C@@H](CCN)NC(=O)[C@@H](CCCCN)NC(=O)[C@@H](CC(=O)O)NC(=O)[C@@H](CCN)NC(=O)[C@@H](NC(=O)C[C@H](O)CCc2cccc(OCCCCC)c2)COC(=O)[C@@H]([C@H](O)CCl)NC(=O)[C@H]([C@H](O)C(=O)O)NC1=O
> 20 mg/L

---

# Test system: Candida albicans
# ASSAY_COMMENT: Lowest concentration required to inhibit 90-100% of the visible growth of Candida albicans when compared to controls
# Format: functional
Overview of reported MIC across a group of compounds:
Expressed in mg/L, but write only the number.

STRUCTURE | TESTED_ON | UNIT_INFO | MIC
C/C=C1\NC(=O)[C@H]([C@H](C)O)NC(=O)[C@@H](CCN)NC(=O)[C@@H](CCCCN)NC(=O)[C@@H](CC(=O)O)NC(=O)[C@@H](CCN)NC(=O)[C@@H](NC(=O)C[C@@H](O)c2cccc(CCCCCCCCCCCC)c2)COC(=O)[C@@H]([C@H](O)CCl)NC(=O)[C@H]([C@H](O)C(=O)O)NC1=O | Candida albicans | mg/L | 5

Tell me measured MIC for C/C=C1\NC(=O)[C@H]([C@@H](C)O)NC(=O)[C@@H](CCN)NC(=O)[C@@H](CCCCN)NC(=O)[C@@H](CC(=O)O)NC(=O)[C@@H](CCN)NC(=O)[C@@H](NC(=O)C[C@H](O)c2cccc(OCCCCCCCCCCC)c2)COC(=O)[C@@H]([C@H](O)CCl)NC(=O)[C@H]([C@H](O)C(=O)O)NC1=O please.
0.625

---

Some compounds, each annotated with its measured MIC.
# System: Aspergillus fumigatus
# ASSAY_COMMENT: Lowest concentration required to inhibit the growth of Aspergillus fumigatus
# Type: functional

COMPOUND | MIC
C/C=C1\NC(=O)[C@H]([C@@H](C)O)NC(=O)[C@@H](CCN)NC(=O)[C@@H](CCCCN)NC(=O)[C@@H](CC(=O)O)NC(=O)[C@@H](CCN)NC(=O)[C@@H](NC(=O)C[C@H](O)c2cccc(CCCCCCCC)c2)COC(=O)[C@@H]([C@H](O)CCl)NC(=O)[C@H]([C@H](O)C(=O)O)NC1=O | > 20 µg/mL

API: the following record is the query input.
Respond only with MIC recorded for C/C=C1\NC(=O)[C@H]([C@@H](C)O)NC(=O)[C@@H](CCN)NC(=O)[C@@H](CCCCN)NC(=O)[C@@H](CC(=O)O)NC(=O)[C@@H](CCN)NC(=O)[C@@H](NC(=O)CC(O)CCc2cccc(OCCCCCCC)c2)COC(=O)[C@@H]([C@H](O)CCl)NC(=O)[C@H]([C@H](O)C(=O)O)NC1=O (some centres not stated)
> 20 µg/mL

Reference source: ChEMBL document CHEMBL1133313
